Tested on: Plasmodium falciparum
Test: Antimalarial activity against chloroquine-sensitive Plasmodium falciparum NF54 assessed as inhibition of schizont maturation at 0.4 ug/ml after 36-40 hrs relative to control
Assay type: functional
Set-up: scale not given: the % may be the effect or the level left
MEASURED ATTRIBUTE: Activity (%)
The response must be a number in % with no trailing unit.

GIVEN SMILES	NUMERIC RESULT
O=C(/C=C/c1ccccc1)c1cccc(Nc2c3ccccc3nc3ccccc23)c1	4.3
O=C(/C=C/C=C/c1ccccc1)c1ccc(Nc2c3ccccc3nc3ccccc23)cc1	0
COc1ccc(/C=C/C(=O)c2cccc(Nc3c4ccccc4nc4ccccc34)c2)cc1	7.1
COc1cc(/C=C/C(=O)c2ccc(Nc3c4ccccc4nc4ccccc34)cc2)cc(OC)c1OC	5.7

Would you kindly look at the next entry?
System Plasmodium falciparum. Read-out Activity. Item COc1ccc(/C=C/C(=O)c2ccc(Nc3c4ccccc4nc4ccccc34)cc2)cc1 . Report value.
71.4

###

Test system: Plasmodium falciparum
Experiment: Antimalarial activity against chloroquine-resistant Plasmodium falciparum W2
Assay type: functional, organism-based
MEASURED ATTRIBUTE: IC50 (µM)
The response must be a number in µM with no trailing unit.

Report measured IC50; entry is CC(C)=CCc1cc(/C=C/C(=O)c2ccc(O)cc2O)ccc1O
10.3

###

Test system: Plasmodium falciparum
Assay: Antimalarial activity against chloroquine-sensitive Plasmodium falciparum NF54 assessed as inhibition of schizont maturation at 2 ug/ml after 36-40 hrs relative to control
Type: functional
Set-up: scale not given: the % may be the effect or the level left
MEASURED ATTRIBUTE: Activity (%)
The response must be a number in % with no trailing unit.

Report measured Activity; entry is COc1ccc(/C=C/C(=O)c2ccc(Nc3c4ccccc4nc4ccccc34)cc2)cc1
85.7

Report measured Activity; entry is O=C(/C=C/C=C/c1ccccc1)c1ccc(Nc2c3ccccc3nc3ccccc23)cc1
64.3

Report measured Activity; entry is Cc1ccc(/C=C/C(=O)c2ccc(Nc3c4ccccc4nc4ccccc34)cc2)cc1
42.8

Report measured Activity; entry is O=C(/C=C/c1cccc([N+](=O)[O-])c1)c1ccc(Nc2c3ccccc3nc3ccccc23)cc1
0

Report measured Activity; entry is COc1ccc(/C=C/C(=O)c2cccc(Nc3c4ccccc4nc4ccccc34)c2)cc1
71.4

###

Tested on: Plasmodium falciparum
Test: Antimalarial activity against chloroquine-sensitive Plasmodium falciparum NF54 assessed as inhibition of schizont maturation at 2 ug/ml after 36-40 hrs relative to control
Assay type: functional
Design: scale not given: the % may be the effect or the level left
MEASURED ATTRIBUTE: Activity (%)
The response must be a number in % with no trailing unit.

A selection of reference data follows.
GIVEN SMILES	NUMERIC RESULT
Cc1cccc(/C=C/C(=O)c2ccc(Nc3c4ccccc4nc4ccccc34)cc2)c1	0
O=C(/C=C/c1ccccc1)c1cccc(Nc2c3ccccc3nc3ccccc23)c1	97.1
O=C(/C=C/c1ccccc1)c1ccc(Nc2c3ccccc3nc3ccccc23)cc1	42.8
COc1cc(/C=C/C(=O)c2ccc(Nc3c4ccccc4nc4ccccc34)cc2)cc(OC)c1OC	57.1
O=C(/C=C/c1ccc(Cl)cc1)c1ccc(Nc2c3ccccc3nc3ccccc23)cc1	0

Would you kindly look at the next entry?
System Plasmodium falciparum. Read-out Activity. Item O=C(/C=C/c1ccc(Cl)cc1)c1cccc(Nc2c3ccccc3nc3ccccc23)c1 . Report value.
0
